Target: Cellular tumor antigen p53 (Homo sapiens) (UniProt P04637)
Sequence (P04637 whole entry, looked up): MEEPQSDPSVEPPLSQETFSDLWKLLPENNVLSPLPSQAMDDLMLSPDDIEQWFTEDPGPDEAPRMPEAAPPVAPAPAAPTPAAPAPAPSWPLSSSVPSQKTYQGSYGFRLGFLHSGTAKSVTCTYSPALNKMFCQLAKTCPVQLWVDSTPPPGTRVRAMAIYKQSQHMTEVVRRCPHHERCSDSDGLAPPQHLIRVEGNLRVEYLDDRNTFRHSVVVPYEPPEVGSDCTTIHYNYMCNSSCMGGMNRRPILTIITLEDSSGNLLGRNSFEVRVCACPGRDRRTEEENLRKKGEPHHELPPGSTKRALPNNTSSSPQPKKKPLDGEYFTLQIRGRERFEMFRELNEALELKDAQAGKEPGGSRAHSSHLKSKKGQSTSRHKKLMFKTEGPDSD
Experiment: TOX21_p53_BLA_p4_ratio: Tox21 HCT-116 p53 Agonism Beta-lactamase Assay, Ratio, Phase 4 (AID 2283601)
Procedure: TOX21_p53_BLA_p4 is a cell-based, single-readout assay that uses HCT116, a human intestinal cell line, […] in a 1536-well plate.TOX21_p53_BLA_p4_ratio is an assay readout measuring reporter gene via receptor activity and designed using inducible reporter (beta lactamase induction) detected with GAL4 b-lactamase reporter gene. […] This assay endpoint, TOX21_p53_BLA_p4_ratio, was analyzed in the positive analysis fitting direction relative to DMSO as the negative control and baseline of activity. […]
Results filed as inconclusive are left out. Active and inactive are the calls of the source. How the source made its calls: active means hit-call score of the fitted dose curve at least 0.9, where 1 is the maximum; inconclusive means response in the unintended direction; inactive means score below 0.9.
Pick from active, inactive when you respond.

*Q* Short answer needed: outcome of this test for CC1=C(C(=O)Nc2ccccc2)SCCO1 ?
*A* inactive

*Q* Short answer needed: outcome of this test for CON(C)C(=O)Nc1ccc(Cl)c(Cl)c1 ?
*A* inactive

*Q* Short answer needed: outcome of this test for CC1COC(Cn2cncn2)(c2ccc(Oc3ccc(Cl)cc3)cc2Cl)O1 (stereo not drawn) ?
*A* active

*Q* Short answer needed: outcome of this test for O=C(Nc1ccccc1)Nc1ccnc(Cl)c1 ?
*A* active

*Q* Short answer needed: outcome of this test for CC(C)(C)c1ccc(CSc2cnn(C(C)(C)C)c(=O)c2Cl)cc1 ?
*A* inactive

*Q* Short answer needed: outcome of this test for COC(=O)c1ccccc1C(=O)OC ?
*A* inactive

*Q* Short answer needed: outcome of this test for CCCCC(CC)COC(=O)c1ccccc1C(=O)OCC(CC)CCCC (stereo not drawn) ?
*A* inactive

*Q* Short answer needed: outcome of this test for COC(=O)C=C(C)OP(=O)(OC)OC ?
*A* inactive

*Q* Short answer needed: outcome of this test for CCOC(=O)CC(SP(=S)(OC)OC)C(=O)OCC (stereo not drawn) ?
*A* inactive

*Q* Short answer needed: outcome of this test for CCOP(=S)(OCC)SCn1c(=O)oc2cc(Cl)ccc21 ?
*A* inactive

*Q* Short answer needed: outcome of this test for CCCCOC(=O)c1ccccc1C(=O)OCCCC ?
*A* inactive

*Q* Short answer needed: outcome of this test for COc1ccc(C(c2ccc(OC)cc2)C(Cl)(Cl)Cl)cc1 ?
*A* inactive

*Q* Short answer needed: outcome of this test for Fc1ccc(Oc2ccnc3cc(Cl)cc(Cl)c23)cc1 ?
*A* active

---

read-out: xenobiotic metabolism (CYP1A1), CYP1A1 (gene 1543); assay: CLD_CYP1A1_48hr: CellzDirect (CLD) Gene Expression Assay for xenobiotic metabolism (CYP1A1) at 48 hours (AID 2283705)
Inconclusive results are not listed. Activity calls are given as the source filed them. The calls were made as follows: active = hit-call score of the fitted dose curve at least 0.9, where 1 is the maximum; inconclusive = response in the unintended direction; inactive = score below 0.9.
RECORDED_METRIC: AC50

CCOc1cc(Oc2ccc(C(F)(F)F)cc2Cl)ccc1[N+](=O)[O-]	1.01 µM (active)
CCCCOC(=O)c1ccccc1C(=O)OCCCC	inactive
CN(C)C(=S)SSC(=S)N(C)C	29.7 µM (active)
C=CC1(C)OC(=O)N(c2cc(Cl)cc(Cl)c2)C1=O (centres undefined)	inactive

---

Assay: Tanguay_ZF_120hpf_SNOU_legacy: (Legacy) Oregon State University Tanguay Lab 120 Hour Post-fertilization zebrafish Assay for Snout Malformation (AID 2283637)
Protocol: Tanguay_ZF_120hpf_legacy is a whole embryo, multiplexed endpoint assay using zebrafish larvae exposed for 120 hours post fertilization on a 96-well plate.Tanguay_ZF_120hpf_SNOU_legacy is one of one assay component(s) measured or calculated from the Tanguay_ZF_120hpf_legacy assay. […] This assay endpoint, Tanguay_ZF_120hpf_SNOU_legacy, was analyzed in the positive analysis fitting direction relative to DMSO as the negative control and baseline of activity. […]
Results filed as inconclusive are left out. Calls of active or inactive are those of the source. Rule for the calls: active = hit-call score of the fitted dose curve at least 0.9, where 1 is the maximum; inconclusive = response in the unintended direction; inactive = score below 0.9.
Pick from 1 = active, -1 = inactive when you respond.

*Q* Short answer needed: outcome of this test for CCCCNC(=O)n1c(NC(=O)OC)nc2ccccc21 ?
*A* 1

*Q* Short answer needed: outcome of this test for N#Cc1cc(Br)c(O)c(Br)c1 ?
*A* -1

*Q* Short answer needed: outcome of this test for CO/C=C(/C(=O)OC)c1ccccc1Oc1cc(Oc2ccccc2C#N)ncn1 ?
*A* -1

*Q* Short answer needed: outcome of this test for CCOC(=O)C(Cl)Cc1cc(-n2nc(C)n(C(F)F)c2=O)c(F)cc1Cl (stereo unspecified) ?
*A* 1

*Q* Short answer needed: outcome of this test for CCOc1cc(Oc2ccc(C(F)(F)F)cc2Cl)ccc1[N+](=O)[O-] ?
*A* -1

*Q* Short answer needed: outcome of this test for CCCCNC(=O)OCC#CI ?
*A* -1

*Q* Short answer needed: outcome of this test for CNC(=O)ON=CC(C)(C)SC ?
*A* -1

*Q* Short answer needed: outcome of this test for Fc1ccc(Oc2ccnc3cc(Cl)cc(Cl)c23)cc1 ?
*A* -1

*Q* Short answer needed: outcome of this test for Cc1c(F)c(F)c(COC(=O)C2C(/C=C(\Cl)C(F)(F)F)C2(C)C)c(F)c1F (stereo unspecified) ?
*A* 1

*Q* Short answer needed: outcome of this test for Oc1ccccc1-c1ccccc1 ?
*A* -1

*Q* Short answer needed: outcome of this test for CCCCOC(=O)c1ccccc1C(=O)OCCCC ?
*A* -1
